The measurements presented in this section are drawn from patent US20210380703A1.

biological target: mouse ACVR2A (mouse, UniProt P27038 20-135, limits assumed); experiment: ELISA; note: test concentration or dose not given here
Sequence (P27038 20-135 limits assumed): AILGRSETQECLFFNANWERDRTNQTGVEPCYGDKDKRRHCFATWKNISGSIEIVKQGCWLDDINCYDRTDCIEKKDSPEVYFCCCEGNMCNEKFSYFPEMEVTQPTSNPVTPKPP
Parameter threshold = 3 OD. Response is Condition met when optical density meets or exceeds it, else Condition not met.

365_E08 (antibody, V domains shown, VH and VL only) VH: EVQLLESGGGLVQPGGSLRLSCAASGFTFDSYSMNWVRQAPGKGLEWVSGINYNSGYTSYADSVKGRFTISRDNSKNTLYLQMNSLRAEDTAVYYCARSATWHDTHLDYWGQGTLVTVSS VL: DIQMTQSPSSLSASVGDRVTITCRASQSIISYVNWYQQKPGKAPKLVIYAATSLASGVPSRFSGSGSGTDFTLTISSLQPEDFATYYCQQSYDLPLTFGGGTKVEIK; Condition not met
374_F09 (antibody, V domains shown, VH and VL only) VH: EVQLLESGGGLVQPGGSLRLSCAASGFTFSSYGMNWVRQAPGKGLEWVSSINYNSGYTSYADSVKGRFTISRDNSKNTLYLQMNSLRAEDTAVYYCARSATWHDTHLDYWGQGTLVTVSS VL: DIQMTQSPSSLSASVGDRVTITCRASQSISSYVNWYQQKPGKAPKLLIYAATSRASGVPSRFSGSGSGTDFTLTISSLQPEDFATYYCQQSYSTPLTFGGGTKVEIK; Condition met
369_G09 (antibody, V domains shown, VH and VL only) VH: EVQLLESGGGLVQPGGSLRLSCAASGFTFDSYSMNWVRQAPGKGLEWVSNINYNGGYTGYADSVKGRFTISRDNSKNTLYLQMNSLRAEDTAVYYCARSATWHDTHLDYWGQGTLVTVSS VL: DIQMTQSPSSLSASVGDRVTITCRASQSIVTYLNWYQQKPGKAPKLLIYAATSRASGVPSRFSGSGSGTDFTLTISSLQPEDFATYYCQQSYDLPLTFGGGTKVEIK; Condition met
372_H03 (antibody, V domains shown, VH and VL only) VH: EVQLLESGGGLVQPGGSLRLSCAASGFTFDSYGMNWVRQAPGKGLEWVSNINYNGGYKSYADSVKGRFTISRDNSKNTLYLQMNSLRAEDTAVYYCARSATWHDTHLDYWGQGTLVTVSS VL: DIQMTQSPSSLSASVGDRVTITCRASQSIITYVNWYQQKPGKAPKLLIYAATSLASGVPSRFSGSGSGTDFTLTISSLQPEDFATYYCQQSYNLPLTFGGGTKVEIK; Condition not met
376_H08 (antibody, V domains shown, VH and VL only) VH: EVQLLESGGGLVQPGGSLRLSCAASGFTFDSYGMNWVRQAPGKGLEWVSNINYNGGYKGYADSVKGRFTISRDNSKNTLYLQMNSLRAEDTAVYYCARSATWHDTHLDYWGQGTLVTVSS VL: DIQMTQSPSSLSASVGDRVTITCRASQSILTYLNWYQQKPGKAPKLLIYAATSRHSGVPSRFSGSGSGTDFTLTISSLQPEDFATYYCQQSDSLPLTFGGGTKVEIK; Condition met

# input Could you verify whether the entry 370_A10 (antibody, V domains shown, VH and VL only) VH: EVQLLESGGGLVQPGGSLRLSCAASGFTFSDYSMNWVRQAPGKGLEWVSSINYNSGYKGYADSVKGRFTISRDNSKNTLYLQMNSLRAEDTAVYYCARSATWHDTHLDYWGQGTLVTVSS VL: DIQMTQSPSSLSASVGDRVTITCRASQSILSYVNWYQQKPGKAPKLLIYAATSLASGVPSRFSGSGSGTDFTLTISSLQPEDFATYYCQQSYDTPLTFGGGTKVEIK shows optical density of no less than 3 OD?
# output Condition not met

# input Could you verify whether the entry 369_F04 (antibody, V domains shown, VH and VL only) VH: EVQLLESGGGLVQPGGSLRLSCAASGFTFSSYGMNWVRQAPGKGLEWVSGINYNGGYTSYADSVKGRFTISRDNSKNTLYLQMNSLRAEDTAVYYCARSATWHDTHLDYWGQGTLVTVSS VL: DIQMTQSPSSLSASVGDRVTITCRASQSIISYVNWYQQKPGKAPKLLIYAATSRHSGVPSRFSGSGSGTDFTLTISSLQPEDFATYYCQQSYDNPLTFGGGTKVEIK shows optical density of no less than 3 OD?
# output Condition not met

# input Could you verify whether the entry 371_F12 (antibody, V domains shown, VH and VL only) VH: EVQLLESGGGLVQPGGSLRLSCAASGFTFDSYSMNWVRQAPGKGLEWVSNINYNGGYKSYADSVKGRFTISRDNSKNTLYLQMNSLRAEDTAVYYCARSATWHDTHLDYWGQGTLVTVSS VL: DIQMTQSPSSLSASVGDRVTITCRASQSIISYLNWYQQKPGKAPKLLIYAATSRASGVPSRFSGSGSGTDFTLTISSLQPEDFATYYCQQSNNLPLTFGGGTKVEIK shows optical density of no less than 3 OD?
# output Condition not met

# input Could you verify whether the entry 365_A04 (antibody, V domains shown, VH and VL only) VH: EVQLLESGGGLVQPGGSLRLSCAASGFTFSDYSMNWVRQAPGKGLEWVSGINYNSGYTSYADSVKGRFTISRDNSKNTLYLQMNSLRAEDTAVYYCARSATWHDTHLDYWGQGTLVTVSS VL: DIQMTQSPSSLSASVGDRVTITCRASQSIVSYVNWYQQKPGKAPKLVIYAATSLASGVPSRFSGSGSGTDFTLTISSLQPEDFATYYCQQSYSTPLTFGGGTKVEIK shows optical density of no less than 3 OD?
# output Condition not met

# input Could you verify whether the entry 367_A11 (antibody, V domains shown, VH and VL only) VH: EVQLLESGGGLVQPGGSLRLSCAASGFTFSSYGMHWVRQAPGKGLEWVSGINYNGGYTSYADSVKGRFTISRDNSKNTLYLQMNSLRAEDTAVYYCARSATWHDTHLDYWGQGTLVTVSS VL: DIQMTQSPSSLSASVGDRVTITCRASQSILSYVNWYQQKPGKAPKLVIYATTSLASGVPSRFSGSGSGTDFTLTISSLQPEDFATYYCQQSYNSPLTFGGGTKVEIK shows optical density of no less than 3 OD?
# output Condition not met
